Biological target: Growth factor receptor-bound protein 2 (Mus musculus) (UniProt Q60631)
Sequence (Q60631 whole entry): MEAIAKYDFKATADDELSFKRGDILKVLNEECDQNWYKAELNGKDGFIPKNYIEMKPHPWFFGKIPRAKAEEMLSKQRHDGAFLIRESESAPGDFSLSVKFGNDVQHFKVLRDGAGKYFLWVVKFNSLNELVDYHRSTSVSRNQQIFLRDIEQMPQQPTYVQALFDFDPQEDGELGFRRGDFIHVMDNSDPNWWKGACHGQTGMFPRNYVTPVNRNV
Test: In vitro inhibitory activity against Shc/Grb2 interactions in B104-1-1 cells at 5 uM
Assay type: functional, cell-based
Numbered stars: 1 amine (or outer) side, 2 acyl side, 3 side chain; on linkers, the order of the positions; unused ones are H or OH. Bridge positions count the residues as written; N and C are the ends. Square brackets hold non-standard residues; d marks the D form. Peptide text beside a SMILES is read from it. I, II: the chains in the order shown. Actinocin(1to9) = Cc1c2oc3c(C)ccc(C(=O)[*:2])c3nc-2c(C(=O)[*:1])c(N)c1=O; NMeV = CN[C@H](C(=O)O)C(C)C; Sar = CNCC(=O)O
// label = rule met if inhibition is not less than 80%, otherwise rule not met

{"Compound": "Cc1c2oc3c(C)ccc(C(=O)N[C@@H]4C(=O)N[C@H](C(C)C)C(=O)N5CCC[C@H]5C(=O)N(C)CC(=O)N[C@H](Cc5ccccc5)C(=O)O[C@@H]4C)c3nc-2c(C(=O)N[C@@H]2C(=O)N[C@H](C(C)C)C(=O)N3CCC[C@H]3C(=O)N(C)CC(=O)N[C@H](Cc3ccccc3)C(=O)O[C@@H]2C)c(N)c1=O", "Assigned Category": "rule met"}
{"Compound": "Cc1c2oc3c(C)ccc(C(=O)N[C@@H]4C(=O)N[C@H](C(C)C)C(=O)N5CCC[C@H]5C(=O)N(C)CC(=O)N[C@@H](Cc5ccc(O)cc5)C(=O)O[C@@H]4C)c3nc-2c(C(=O)N[C@@H]2C(=O)N[C@H](C(C)C)C(=O)N3CCC[C@H]3C(=O)N(C)CC(=O)N[C@@H](Cc3ccc(O)cc3)C(=O)O[C@@H]2C)c(N)c1=O (stereo in doubt; 10)", "Assigned Category": "rule met"}
{"Compound": "Cc1c2oc3c(C)ccc(C(=O)N[C@@H]4C(=O)N[C@H](C(C)C)C(=O)N5CCC[C@H]5C(=O)N(C)CC(=O)N[C@@H](Cc5ccc(O)cc5)C(=O)O[C@@H]4C)c3nc-2c(C(=O)N[C@@H]2C(=O)N[C@H](C(C)C)C(=O)N3CCC[C@H]3C(=O)N(C)CC(=O)N[C@@H](Cc3ccc(O)cc3)C(=O)O[C@@H]2C)c(N)c1=O (stereo in doubt; 8)", "Assigned Category": "rule not met"}
{"Compound": "Cc1c2oc3c(C)ccc(C(=O)N[C@@H]4C(=O)N[C@H](C(C)C)C(=O)N5CCC[C@H]5C(=O)N(C)CC(=O)N(C)[C@@H](C(C)C)C(=O)O[C@@H]4C)c3nc-2c(C(=O)N[C@@H]2C(=O)N[C@H](C(C)C)C(=O)N3CCC[C@H]3C(=O)N(C)CC(=O)N(C)[C@@H](C(C)C)C(=O)O[C@@H]2C)c(N)c1=O [DACTINOMYCIN] (I: T[dV]P[Sar][NMeV] / II: T[dV]P[Sar][NMeV]; ester I:1-I:C, II:1-II:C; linker I:N-II:N via Actinocin(1to9))", "Assigned Category": "rule not met"}
{"Compound": "Cc1c2oc3c(C)ccc(C(=O)N[C@@H]4C(=O)N[C@H](Cc5ccc(O)cc5)C(=O)N5CCC[C@H]5C(=O)N(C)CC(=O)N[C@@H](C(C)C)C(=O)O[C@@H]4C)c3nc-2c(C(=O)N[C@@H]2C(=O)N[C@H](Cc3ccc(O)cc3)C(=O)N3CCC[C@H]3C(=O)N(C)CC(=O)N[C@@H](C(C)C)C(=O)O[C@@H]2C)c(N)c1=O (stereo in doubt; 7)", "Assigned Category": "rule not met"}

The measured values listed here are drawn from ChEMBL document CHEMBL1133215.
